tested on: Nightshade; experiment: Test C preemergence; type: in vivo; conditions: Rate 31 g/ha, scale 0 to 100
Field: Plant response rating, Nightshade. Provide a value for each of the molecules that follow.

Please give Plant response rating, Nightshade, item by item, for the list that follows.
1. COc1cc(N2CCC(n3ccc(C(C)(C)C)n3)C2=O)ccc1C (stereo not shown)
2. Cc1cc(C)nc(N2CCC(n3ccc(C(C)(C)C)n3)C2=O)c1 (stereo not shown)

0
0

Could you tell me Plant response rating, Nightshade for each of these molecules? They are listed below.
1. CCCC(C)c1ccn(C2SCN(c3cccc(OC(F)(F)F)c3)C2=O)n1 (stereo not shown)
2. CC(C)Oc1cccc(N2CCC(n3ccc(C(C)(C)C)n3)C2=O)c1 (stereo not shown)

0
20

All values here come from patent US7138361B2.
